- Assay Method Text: Cmax in war-wounded patient infected with Acinetobacter baumannii-calcoacetius at 2 to 3 mg/kg/day
- Assay type: ADME, organism-based
- Test Settings: human, in vivo
Endpoint Name: Cmax

{"columns": ["Compound Structure String", "Meas Value"],
 "data": [
  ["NCC[C@H](O)C(=O)N[C@@H]1C[C@H](N)[C@@H](O[C@H]2O[C@H](CN)CC[C@H]2N)[C@H](O)[C@H]1O[C@H]1O[C@H](CO)[C@@H](O)[C@H](N)[C@H]1O", "20000 ng/mL"]
]}
